System: NCI-H1993
test.protocol: relative viability (nuclei count vs DMSO), 5 days (fraction); higher = more cells survive
condition.set: first compound 500 µM
As shown below, each of these compounds has a reported relative viability value.
// return a plain number; no unit text

O=C(O)CCCCC(CCSCc1ccccc1)SCc1ccccc1 (stereo not given) [CPI-613] + CS(=O)(=O)CCNCc1ccc(-c2ccc3ncnc(Nc4ccc(OCc5cccc(F)c5)c(Cl)c4)c3c2)o1 [Lapatinib] (partner 2 µM) : 0.41
O=C(O)CCCCC(CCSCc1ccccc1)SCc1ccccc1 (stereo not given) [CPI-613] + COc1cccc2cc(-c3nc([C@H]4CC[C@H](C(=O)O)CC4)n4ncnc(N)c34)[nH]c12 [OSI-027] (partner 0.5 µM) : 0.375
O=C(O)CCCCC(CCSCc1ccccc1)SCc1ccccc1 (stereo not given) [CPI-613] + Cc1nc(Nc2ncc(C(=O)Nc3c(C)cccc3Cl)s2)cc(N2CCN(CCO)CC2)n1 [Dasatinib] (partner 0.075 µM) : 0.369
O=C(O)CCCCC(CCSCc1ccccc1)SCc1ccccc1 (stereo not given) [CPI-613] + N=C(N)NC(=N)NCCc1ccccc1 [Phenformin] (partner 250 µM) : 0.42

Please turn your attention to the following entry.
// query relative viability value for entry O=C(O)CCCCC(CCSCc1ccccc1)SCc1ccccc1 (stereo not given) [CPI-613] + COc1cc2c(Oc3ccc(NC(=O)C4(C(=O)Nc5ccc(F)cc5)CC4)cc3F)ccnc2cc1OCCCN1CCOCC1 [Foretinib] (partner 0.25 µM)
0.452
